assayed target: T1, ^NDD9 Val (N-terminal docking domain of stambomycin PKS subunit Pks9, version with the Val start site) (Streptomyces ambofaciens ATCC23877)
T1 chain: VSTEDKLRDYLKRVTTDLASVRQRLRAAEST
assay text: ITC; ^CDD (700 μM) in the syringe titrated into the ^NDD in the cell (^NDD5 70 μM; ^NDD9 Met 80 μM; ^NDD9 Val 120 μM); 20 °C; buffer GF (20 mM HEPES, 100 mM NaCl, 0.5 mM TCEP, pH 7.5); one-site binding model; two independent titrations
measurement conditions: both partners purified
parameter measured: pKd
Give bare numbers, as −log10 of the molar value.

Provide reported pKd for each item, in the same order as listed.
1. ^CDD8 (C-terminal docking domain of stambomycin PKS subunit Pks8) (domain or fragment) GPGSYGPAALLADLDRLDAALAGTGPGDETRSRVISRLHALLARHDTADGSGLVTAAGNLDAADDDNLFAFIDNELGA
2. ^CDD4 helix swap (C-terminal docking domain of Pks4 with its docking α-helix exchanged for that of ^CDD8) (domain or fragment) GPGSYADRLLAELARLEADLTRMDGDEEDRTRLAARLRALADRCQGERTRRDDNLDAADDDNLFAFIDNELGA

[4.66, 4.68]
